target_system: GPR3 (Homo sapiens)
Construct: expressed in transfected cells; host or cells: CHO cells
test: GPR3 antagonist functional cAMP assay (LANCE Ultra cAMP TR-FRET, CHO cells stably expressing GPR3)
Type: cell-based
condition_notes: procedure of Example 24
The entries below are paired with their reported IC50.

Answered cases to consult:
COC[C@@H](O)c1cc2nc(N3CCC(Oc4ccc(F)cc4F)CC3)c(-c3cnn(C)c3)nc2cn1 (single isomer, unassigned) : 1 to 30 µM
CCn1cc(-c2nc3c(nc2N2CCC(Oc4ccc(F)cc4F)CC2)CCN(S(C)(=O)=O)C3)cn1 : 1 to 30 µM

Provide IC50, system GPR3 (Homo sapiens), entry CCn1cc(-c2nc3cc(C(C)(O)C(C)(C)O)ncc3nc2N2CCC(Oc3ccc(F)cc3F)CC2)cn1 (single isomer, unassigned) [Compound 740]
1 to 30 µM

Provide IC50, system GPR3 (Homo sapiens), entry CC(=O)N1CCc2nc(N3CCN(Cc4cc(Cl)ccc4Cl)CC3)c(-c3cnn(C)c3)nc2C1
1 to 30 µM

Provide IC50, system GPR3 (Homo sapiens), entry CC(C)(O)C(=O)c1cncc2nc(-c3cnn(C(F)F)c3)c(N3CCN(Cc4ccc(F)cc4F)CC3)nc12
≥ 30 µM

Provide IC50, system GPR3 (Homo sapiens), entry CC(=O)N1CCc2nc(N3CCN(Cc4ccccc4)CC3)c(-c3cnn(C)c3)nc2C1
1 to 30 µM

====

The entries below are paired with their reported IC50.
target_system: GPR6 (Homo sapiens)
Construct: expressed in transfected cells; host or cells: CHO cells
test: GPR6 antagonist functional cAMP assay (LANCE Ultra cAMP TR-FRET, CHO cells stably expressing GPR6)
Assay type: cell-based
condition_notes: procedure of Example 24

Answered cases to consult:
CC(C)(O)[C@](C)(O)c1cc2nc(N3CCC(Oc4ccc(F)cc4F)CC3)c(-c3cnn(C4CC4)c3)nc2cn1 (single isomer, unassigned) [Compound 664] : 100 to 1000 nM
CC(=O)N1CCc2nc(N3CCC(COc4cccc(F)c4)C3)c(-c3cnn(C)c3)nc2C1 (stereo not drawn) [Compound 324] : 1000 to 30000 nM
CNc1cncc(-c2nc3c(nc2N2CCC(Oc4ccc(F)cc4F)CC2)CCN(C(C)=O)C3)n1 [Compound 329] : < 100 nM
CC(=O)N1CCc2nc(C3CCC(Oc4ccc(F)cc4F)CC3)c(-c3ncco3)nc2C1 (stereo not drawn) [Compound 302] : 1000 to 30000 nM
CC(C)(O)C(C)(O)c1cc2nc(N3CCN(Cc4ccccc4F)CC3)c(-c3cnn(C(F)F)c3)nc2cn1 (stereo not drawn) [Compound 634] : 100 to 1000 nM
Cn1cc(-c2nc3cnc(OCC(C)(C)O)cc3nc2N2CCC(Oc3ccc(F)cc3F)CC2)cn1 [Compound 696] : 100 to 1000 nM
CCOC(=O)N1CCc2nc(N3CCC(Oc4ccc(F)cc4F)CC3)c(-c3cnn(CC)c3)nc2C1 [Compound 299] : < 100 nM
CCn1cc(-c2nc3c(nc2N2CCC(Oc4ccc(F)cc4F)CC2)CCN(S(C)(=O)=O)C3)cn1 [Compound 269] : < 100 nM
CC(=O)N1CCc2nc(N3CCN(Cc4ccc(Cl)cc4F)CC3)c(-c3cnn(C)c3)nc2C1 [Compound 348] : 100 to 1000 nM
CCn1cc(-c2nc3cc(C(C)(O)C(C)(C)O)ncc3nc2N2CCC(Oc3ccc(F)cc3F)CC2)cn1 (single isomer, unassigned) [Compound 741] : 100 to 1000 nM

Note IC50 for the molecule shown: CC(C)(O)[C@H](O)c1cc2nc(N3CCN(Cc4ccccc4F)CC3)c(-c3cnn(C4CC4)c3)nc2cn1 (single isomer, unassigned) [Compound 732]
100 to 1000 nM

Note IC50 for the molecule shown: CC(=O)N1CCc2nc(N3CCN(C(C)c4ccc(F)cc4F)CC3)c(-c3cnn(C)c3)nc2C1 (stereo not drawn) [Compound 729]
1000 to 30000 nM

Note IC50 for the molecule shown: Cn1cc(-c2nc3cnc([C@@](C)(O)C(C)(C)O)cc3nc2N2CCC(Oc3ccc(F)cc3F)CC2)cn1 (single isomer, unassigned) [Compound 672]
100 to 1000 nM

Note IC50 for the molecule shown: COCC(O)c1cc2nc(N3CCN(Cc4ccc(F)cc4F)CC3)c(-c3cnn(C(F)F)c3)nc2cn1 (stereo not drawn) [Compound 687]
100 to 1000 nM

Note IC50 for the molecule shown: COC[C@@H](O)c1cc2nc(N3CCC(Oc4ccc(F)cc4F)CC3)c(-c3cnn(C)c3)nc2cn1 (single isomer, unassigned) [Compound 642]
100 to 1000 nM

Note IC50 for the molecule shown: Cn1cc(-c2nc3cc([C@](C)(O)CO)ncc3nc2N2CCC(Oc3ccc(F)cc3F)CC2)cn1 (single isomer, unassigned) [Compound 691]
100 to 1000 nM

Note IC50 for the molecule shown: O=c1cc2nc(-c3cnn(CF)c3)c(N3CCN(Cc4ccc(F)cc4F)CC3)nc2c[nH]1 [Compound 796]
100 to 1000 nM

Note IC50 for the molecule shown: CC(C)(O)C(O)c1cc2nc(-c3cnn(CF)c3)c(N3CCN(Cc4cc(F)ccc4F)CC3)nc2cn1 (single isomer, unassigned) [Compound 723]
100 to 1000 nM

====

target_system: GPR6 (Homo sapiens, UniProt P46095)
Construct: expressed in transfected cells; host or cells: CHO cells
Sequence (P46095 whole entry): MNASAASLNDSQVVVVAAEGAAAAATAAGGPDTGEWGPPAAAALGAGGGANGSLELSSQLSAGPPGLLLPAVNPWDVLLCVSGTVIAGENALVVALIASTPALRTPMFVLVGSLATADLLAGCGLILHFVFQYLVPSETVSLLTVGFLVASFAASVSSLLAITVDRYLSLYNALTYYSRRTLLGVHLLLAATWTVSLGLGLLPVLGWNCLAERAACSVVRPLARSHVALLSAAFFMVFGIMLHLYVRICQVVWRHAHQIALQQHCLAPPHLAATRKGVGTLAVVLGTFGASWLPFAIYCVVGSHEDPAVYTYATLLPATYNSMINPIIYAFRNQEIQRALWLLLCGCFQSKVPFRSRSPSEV
test: GPR6 antagonist functional cAMP assay (LANCE Ultra cAMP TR-FRET, CHO cells stably expressing GPR6)
Format: cell-based
condition_notes: procedure of Example 24
property_label: IC50

Answered cases to consult:
CC(=O)N1CCc2nc(N3CCC(C(F)(F)c4ccc(F)cc4F)CC3)c(-c3cnn(C)c3)nc2C1 [Compound 698] : 0.1 to 1 µM
COc1ccc(CN2CCN(c3nc4c(nc3-c3cnn(C)c3)CN(C(C)=O)CC4)CC2)cn1 [Compound 345] : 1 to 30 µM
CC(=O)N1CCc2nc(N3CCN(Cc4cc(Cl)ccc4Cl)CC3)c(-c3cnn(C)c3)nc2C1 [Compound 281] : < 0.1 µM

Provide IC50, system GPR6 (Homo sapiens, UniProt P46095), entry CC(C)(O)[C@@](C)(O)c1cc2nc(-c3cnn(CF)c3)c(N3CCC(Oc4ccc(F)cc4F)CC3)nc2cn1 (single isomer, unassigned) [Compound 783]
0.1 to 1 µM

Provide IC50, system GPR6 (Homo sapiens, UniProt P46095), entry CC(=O)N1CCc2nc(N3CCC(Cc4ccc(F)cc4F)CC3)c(-c3cnn(C)c3)nc2C1 [Compound 375]
< 0.1 µM

Provide IC50, system GPR6 (Homo sapiens, UniProt P46095), entry CC(=O)N1CCc2nc(N3CCN(Cc4c(F)ccc(F)c4F)CC3)c(-c3cnn(C)c3)nc2C1 [Compound 354]
1 to 30 µM

Provide IC50, system GPR6 (Homo sapiens, UniProt P46095), entry CC(C)(O)C(O)c1cc2nc(-c3cn[nH]c3)c(N3CCC(=Cc4ccc(F)cc4F)CC3)nc2cn1 (stereo not shown) [Compound 780]
< 0.1 µM

====

target_system: GPR3 (Homo sapiens, UniProt P46089)
Construct: expressed in transfected cells; host or cells: CHO cells
Sequence (P46089 whole entry, species assumed): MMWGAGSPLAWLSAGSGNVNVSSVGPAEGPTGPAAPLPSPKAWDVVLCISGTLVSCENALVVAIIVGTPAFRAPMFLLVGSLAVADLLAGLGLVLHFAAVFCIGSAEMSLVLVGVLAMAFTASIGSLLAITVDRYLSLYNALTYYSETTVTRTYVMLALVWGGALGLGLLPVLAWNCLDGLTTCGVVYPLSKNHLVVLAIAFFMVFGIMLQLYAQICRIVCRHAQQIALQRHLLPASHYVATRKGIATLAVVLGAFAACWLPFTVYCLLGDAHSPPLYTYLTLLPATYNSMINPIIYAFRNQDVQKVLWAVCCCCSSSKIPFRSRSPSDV
test: GPR3 antagonist functional cAMP assay (LANCE Ultra cAMP TR-FRET, CHO cells stably expressing GPR3)
Format: cell-based
condition_notes: procedure as described in Example 24
property_label: IC50

CC(=O)N1CCc2nc(N3CCC(Oc4ccc(F)cc4F)CC3)c(-c3cn[nH]c3C(C)C)nc2C1 : 1 to 30 µM
CC(=O)N1CCc2nc(N3CCC(Oc4ccc(F)cc4F)CC3)c(-c3ncn[nH]3)nc2C1 : 0.1 to 1 µM
COc1cccc(-c2nc3cnccc3nc2N2CCN(Cc3ccc(S(C)(=O)=O)cc3F)CC2)n1 : 0.1 to 1 µM
Fc1ccc(Cl)cc1CN1CCN(c2nc3ccncc3nc2-c2cn[nH]c2)CC1 : 1 to 30 µM
COc1cncc(-c2nc3c(nc2N2CCC(Oc4ccc(F)cc4F)CC2)CCN(C(C)=O)C3)c1 : 1 to 30 µM

Note IC50 for the compound shown: Fc1ccc(CN2CCN(c3nc4ccncc4nc3-c3cn[nH]c3)CC2)c(F)c1
1 to 30 µM

Note IC50 for the compound shown: CNC(=O)Cn1cc(-c2nc3c(nc2N2CCC(Oc4ccc(F)cc4F)CC2)CCN(C(C)=O)C3)cn1
1 to 30 µM

Note IC50 for the compound shown: Fc1ccc(OC2CCN(c3nc4ccncc4nc3-c3cn[nH]c3)CC2)c(F)c1
0.1 to 1 µM

Note IC50 for the compound shown: CC(=O)N1CCc2nc(N3CCC(Oc4ccc(F)cc4F)CC3)c(-c3cnc4n3CCNC4)nc2C1
0.1 to 1 µM

Note IC50 for the compound shown: CC(=O)N1CCc2nc(N3CCC(Oc4ccc(F)cc4F)CC3)c(-c3cccc(=O)[nH]3)nc2C1
1 to 30 µM

Note IC50 for the compound shown: CC(=O)N1CCc2nc(N3CCC(Oc4ccc(F)cc4F)CC3)c(-c3ncco3)nc2C1
0.1 to 1 µM

Note IC50 for the compound shown: Clc1ccc(Cl)c(CN2CCN(c3nc4ccncc4nc3-c3ncc[nH]3)CC2)c1
1 to 30 µM

Note IC50 for the compound shown: CC(=O)N1CCc2nc(N3CCC(Oc4ccc(F)cc4F)CC3)c(-c3cccc(OC(C)C)n3)nc2C1
0.1 to 1 µM

Note IC50 for the compound shown: CC(=O)N1CCc2nc(N3CCC(Oc4ccc(F)cc4F)CC3)c(-c3c(C)nn(C4CCCCO4)c3C)nc2C1 (stereo not drawn)
1 to 30 µM

Note IC50 for the compound shown: CNC(=O)c1ccc2nc(-c3nccn3COC)c(N3CCN(Cc4cc(Cl)ccc4Cl)CC3)nc2c1
1 to 30 µM

Note IC50 for the compound shown: CC(=O)N1CCc2nc(N3CCC(Oc4ccc(F)cc4F)CC3)c(-c3cnn(C(F)F)c3)nc2C1
1 to 30 µM

Note IC50 for the compound shown: CC(=O)N1CCc2nc(N3CCC(Oc4ccc(F)cc4F)CC3)c(-c3cnn(CC(F)F)c3)nc2C1
1 to 30 µM

Note IC50 for the compound shown: CC(=O)N1CCc2nc(N3CCC(Oc4ccc(F)cc4F)CC3)c(-c3ccn[nH]3)nc2C1
1 to 30 µM

Note IC50 for the compound shown: CC(=O)N1CCc2nc(N3CCC(Oc4ccc(F)cc4F)CC3)c(-c3cc[nH]c3)nc2C1
1 to 30 µM

Note IC50 for the compound shown: CC(=O)N1CCc2nc(N3CCC(Oc4ccc(F)cc4F)CC3)c(-c3ncccn3)nc2C1
0.1 to 1 µM

Note IC50 for the compound shown: COCn1cc(-c2nc3c(nc2N2CCC(Oc4ccc(F)cc4F)CC2)CCN(C(C)=O)C3)cn1
1 to 30 µM

Note IC50 for the compound shown: CS(=O)(=O)c1ccc(CN2CCN(c3nc4ccncc4nc3-c3cn[nH]c3)CC2)c(F)c1
0.1 to 1 µM

Note IC50 for the compound shown: CC(=O)N1CCc2nc(N3CCC(Oc4ccc(F)cc4F)CC3)c(-c3cccc(OC(C)(C)C)n3)nc2C1
0.1 to 1 µM

Note IC50 for the compound shown: CC(=O)N1CCc2nc(N3CCC(Oc4ccc(F)cc4F)CC3)c(-c3cn[nH]c3C)nc2C1
1 to 30 µM
